Where do these numbers come from? They come from ChEMBL document CHEMBL2034873.

# assay.text: Selectivity ratio of IC50 for cyclinE/CDK2 to IC50 for CHK1
measured.property: Ratio IC50
Answer with a bare number; do not write a unit.

{"columns": ["smiles.data", "measured.property", "reported.result"],
 "data": [
  ["O=C(Nc1ccccc1N1CCNCC1)c1csc(-c2cc3ccccc3s2)n1", "Ratio IC50", 33]
]}

Ask: // Input: O=C(Nc1ccccc1N1CCNCC1)c1csc(-c2ccc3[nH]ccc3c2)n1 . Output its Ratio IC50 only.
Result: 960

Ask: // Input: O=C(Nc1ccccc1N1CCNCC1)c1csc(-c2ccsc2)n1 . Output its Ratio IC50 only.
Result: 5

Ask: // Input: O=C(Nc1ccccc1N1CCNCC1)c1csc(C#Cc2ccccc2)n1 . Output its Ratio IC50 only.
Result: 32

Ask: // Input: COc1ccc(-c2nc(C(=O)Nc3ccccc3N3CCNCC3)cs2)cc1OC . Output its Ratio IC50 only.
Result: 6.6

Ask: // Input: COc1ccc(-c2nc(C(=O)Nc3ccccc3N3CCNCC3)cs2)cc1C . Output its Ratio IC50 only.
Result: 12

====

# assay.text: Selectivity ratio of IC50 for cyclinE/CDK2 to IC50 for CHK1
Quick rule: Ratio IC50 of at least 5 means criterion met, below that means criterion not met.

Illustrative cases are given below, each with its answer.
{"columns": ["smiles.data", "class"],
 "data": [
  ["C[C@@H]1CN(c2ccccc2NC(=O)c2csc(-c3ccc4c(c3)CCO4)n2)CCN1", "criterion not met"],
  ["O=C(Nc1ccccc1C1CCNCC1)c1csc(-c2ccc3c(c2)CCO3)n1", "criterion not met"]
]}

Ask: Form field: Ratio IC50 at least 5? Entry: O=C(Nc1ccccc1C1=CCNCC1)c1csc(-c2ccc3c(c2)CCO3)n1
Result: criterion not met

Ask: Form field: Ratio IC50 at least 5? Entry: O=C(Nc1ccccc1N1CCNCC1)c1csc(-c2csc3ccccc23)n1
Result: criterion met

Ask: Form field: Ratio IC50 at least 5? Entry: O=C(Nc1ccccc1N1CCNCC1)c1csc(-c2ccc3c(c2)OCO3)n1
Result: criterion met

Ask: Form field: Ratio IC50 at least 5? Entry: O=C(Nc1ccccc1N1CCNCC1)c1csc(-c2ccc(Oc3ccccc3)cc2)n1
Result: criterion met

Ask: Form field: Ratio IC50 at least 5? Entry: O=C(Nc1ccccc1N1CCNCC1)c1csc(-c2ccncc2)n1
Result: criterion not met

====

# tested.target: Serine/threonine-protein kinase Chk1 (Homo sapiens, UniProt O14757)
# Sequence (O14757 whole entry): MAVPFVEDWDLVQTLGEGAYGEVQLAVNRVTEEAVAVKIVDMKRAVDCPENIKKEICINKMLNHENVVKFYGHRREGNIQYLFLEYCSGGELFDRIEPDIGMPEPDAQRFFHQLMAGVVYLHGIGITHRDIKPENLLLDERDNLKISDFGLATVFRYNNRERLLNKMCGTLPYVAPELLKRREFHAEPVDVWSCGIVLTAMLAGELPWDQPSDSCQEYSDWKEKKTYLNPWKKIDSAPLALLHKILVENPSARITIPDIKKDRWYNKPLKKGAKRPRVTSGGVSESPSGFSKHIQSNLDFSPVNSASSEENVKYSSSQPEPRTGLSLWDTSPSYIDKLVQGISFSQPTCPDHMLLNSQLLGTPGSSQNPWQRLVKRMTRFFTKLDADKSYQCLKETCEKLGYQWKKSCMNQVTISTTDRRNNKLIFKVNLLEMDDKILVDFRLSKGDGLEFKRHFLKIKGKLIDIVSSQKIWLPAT
# assay.text: Inhibition of recombinant His-tagged CHK1 using biotin-RSGLYRSPSMPENLNRPR as substrate after 1 hr by scintillation proximity assay
measured.property: IC50 (nM)
Number only, in nM; omit the unit.

In the examples that follow, each entry is paired with its recorded IC50.
{"columns": ["smiles.data", "measured.property", "reported.result"],
 "data": [
  ["O=C(Nc1ccccc1N1CCNCC1)c1csc(-c2cc[nH]n2)n1", "IC50", 110],
  ["O=C(Nc1ccccc1N1CCNCC1)c1csc(-c2ccc3c(c2)CCO3)n1", "IC50", 75],
  ["O=C(Nc1ccccc1N1CCNCC1)c1csc(-c2ccncc2)n1", "IC50", 1500]
]}

Ask: // Input: O=C(Nc1ccccc1N1CCNCC1)c1csc(-c2ccc(-c3ccccc3)s2)n1 . Output its IC50 only.
Result: 89

Ask: // Input: O=C(Nc1ccccc1N1CCNCC1)c1csc(-c2ccc[nH]2)n1 . Output its IC50 only.
Result: 1200

Ask: // Input: O=C(Nc1ccccc1N1CCNCC1)c1csc(-c2cccnc2)n1 . Output its IC50 only.
Result: 1400
